The reported numbers originate from the NIST ThermoML archive (doi:10.1021/acs.jced.9b00442).

Conditions: 307.15 K; 100 kPa; Liquid; Vibrating tube method
measuredAttribute: mass density (kg/m3)

> print(dat)
                                        mol  observedmeasurement
1  CC[N+](C)(C)CCOC.O=S(=O)([N-]S(=O)(=O)C(F)(F)F)C(F)(F)F               1422.5
2  CC[N+](CCO)(CCO)CCO.O=S(=O)([N-]S(=O)(=O)C(F)(F)F)C(F)(F)F               1521.9
3  CC[N+](C)(CCO)CCO.O=S(=O)([N-]S(=O)(=O)C(F)(F)F)C(F)(F)F               1507.1
4  C[N+](CCO)(CCO)CCO.O=S(=O)([N-]S(=O)(=O)C(F)(F)F)C(F)(F)F               1558.7
5  CCCC[N+](C)(C)CC.O=S(=O)([N-]S(=O)(=O)C(F)(F)F)C(F)(F)F               1363.7
6  CCCC[N+](CCO)(CCO)CCO.O=S(=O)([N-]S(=O)(=O)C(F)(F)F)C(F)(F)F               1448.8
7  CC[N+](C)(C)CCCO.O=S(=O)([N-]S(=O)(=O)C(F)(F)F)C(F)(F)F               1455.5

###

Conditions: 303.15 K; 100 kPa; Liquid; Concentric cylinders viscometry
measuredAttribute: log10(viscosity) (log10 of the value in mPa·s)

> print(dat)
                                        mol  measuredattribute  observedmeasurement
1  CC[N+](C)(C)CCOC.O=S(=O)([N-]S(=O)(=O)C(F)(F)F)C(F)(F)F   log10(viscosity)                 1.69
2  C[N+](CCO)(CCO)CCO.O=S(=O)([N-]S(=O)(=O)C(F)(F)F)C(F)(F)F   log10(viscosity)                 2.60
3  CC[N+](C)(C)CCCO.O=S(=O)([N-]S(=O)(=O)C(F)(F)F)C(F)(F)F   log10(viscosity)                 2.10
4  CC[N+](CCO)(CCO)CCO.O=S(=O)([N-]S(=O)(=O)C(F)(F)F)C(F)(F)F   log10(viscosity)                 2.76
5  CCCC[N+](CCO)(CCO)CCO.O=S(=O)([N-]S(=O)(=O)C(F)(F)F)C(F)(F)F   log10(viscosity)                 2.85
6  CC[N+](C)(CCO)CCO.O=S(=O)([N-]S(=O)(=O)C(F)(F)F)C(F)(F)F   log10(viscosity)                 2.30
7  CCCC[N+](C)(C)CC.O=S(=O)([N-]S(=O)(=O)C(F)(F)F)C(F)(F)F   log10(viscosity)                 1.89

###

Settings: 313.15 K; 100 kPa; Liquid; Concentric cylinders viscometry
measuredAttribute: log10(viscosity) (log10 of the value in mPa·s)

> print(dat)
                                        mol  measuredattribute  observedmeasurement
1  CC[N+](C)(C)CCCO.O=S(=O)([N-]S(=O)(=O)C(F)(F)F)C(F)(F)F   log10(viscosity)                 1.89
2  CC[N+](CCO)(CCO)CCO.O=S(=O)([N-]S(=O)(=O)C(F)(F)F)C(F)(F)F   log10(viscosity)                 2.45
3  CC[N+](C)(CCO)CCO.O=S(=O)([N-]S(=O)(=O)C(F)(F)F)C(F)(F)F   log10(viscosity)                 2.05
4  CC[N+](C)(C)CCOC.O=S(=O)([N-]S(=O)(=O)C(F)(F)F)C(F)(F)F   log10(viscosity)                 1.53
5  C[N+](CCO)(CCO)CCO.O=S(=O)([N-]S(=O)(=O)C(F)(F)F)C(F)(F)F   log10(viscosity)                 2.32
6  CCCC[N+](CCO)(CCO)CCO.O=S(=O)([N-]S(=O)(=O)C(F)(F)F)C(F)(F)F   log10(viscosity)                 2.53
7  CCCC[N+](C)(C)CC.O=S(=O)([N-]S(=O)(=O)C(F)(F)F)C(F)(F)F   log10(viscosity)                 1.71
